system: NCI-H460 lung
Pick one and only one: active, inactive

Known results for compounds:
                                   compound  assigned_class
0  CN(C)CCCCCNc1c2ccccc2nc2cccc([N+](=O)[O-])c12          active
1  CCN(CC)c1ccc(/C=N/NC(=O)CSc2nc3ccccc3c(=O)n2Cc2ccc(S(N)(=O)=O)cc2)c(O)c1          active
2  COc1cc2nc(-c3cccc4cccnc34)nc(NC3CCN(Cc4ccccc4)CC3)c2cc1OC          active
3  COc1cc(Nc2ncnc(Nc3ccc4c(n3)NC(=O)C(C)(C)O4)n2)cc(OC)c1OC        inactive

# input What call does the record list for NC(CSC(c1ccccc1)(c1ccccc1)c1ccc(F)cc1)C(=O)O (centres undefined) ?
# output active

# input Short answer needed: outcome of this test for COc1ccc(-c2n[nH]nc2-c2cc(OC)c3c(c2)OCO3)cc1 ?
# output active

# input Lab log entry: COc1ccc2nc3cccc([N+](=O)[O-])c3c(NCCNCCN(C)C)c2c1 — outcome as called in the assay?
# output active

* * *

test system: OVCAR-5 ovarian; test: NCI tumour cell line growth inhibition, 48 h
QUANTITY_KIND: TGI

Recorded results for 5 compounds are shown here.
COMPOUND	ASSAYED_SYSTEM	TGI
CCOC(=O)C1=C(C(=O)OCC)C2(c3ccccc3)N(O1)c1ccccc1C2(C)C (stereo not drawn)	OVCAR-5 ovarian	> 100 µM
OC(COc1ccccc1)CN1CCCCC1 (stereo not drawn)	OVCAR-5 ovarian	> 100 µM
C=C(CN1c2ccccc2Sc2ccccc21)c1ccc(C(=O)Nc2ccccc2N)cc1	OVCAR-5 ovarian	> 100 µM
O=C(C1OC1c1cccc([N+](=O)[O-])c1)C12CC3CC(CC(C3)C1)C2 (stereo not drawn)	OVCAR-5 ovarian	18.9 µM
COc1cc(NC(C)CCCNC(C)C)c2ncccc2c1OC (stereo not drawn)	OVCAR-5 ovarian	> 100 µM

# input For the compound C#C[C@]1(O)CC[C@H]2[C@@H]3CCC4=C/C(=N/OC(=O)c5cccc6c(=O)c7ccccc7[nH]c56)CCC4[C@H]3CC[C@@]21CC (stereo partly drawn) , report TGI.
# output > 100 µM

# input Specify reported TGI for the compound shown: Clc1ccc(OCc2nnc3n2N=C(c2ccccc2)CS3)c(Cl)c1
# output > 100 µM

# input Give me measured TGI, please, for this compound: O=C(N/C(=C/c1cccc([N+](=O)[O-])c1)c1nc2ccc(Cl)cc2[nH]1)c1ccccc1
# output 78.6 µM

* * *

Reported TGI values are given for each entry in this list.
tested on: A549 NSCLC; experiment: NCI tumour cell line growth inhibition, 48 h

For orientation, consider the following solved cases.
COMPOUND	ASSAYED_SYSTEM	QUANTITY_KIND	READOUT_VALUE
C=CCn1c(-c2ccc(Cl)cc2)csc1=Nc1ccccc1OC	A549 NSCLC	TGI	> 100 µM
CC(CC[C@@]1(O)OC2C[C@H]3[C@@H]4CC[C@H]5CC(OC6OC(CO)C(OC7OC(CO)C(O)C(OC8OCC(O)C(O)C8O)C7OC7OC(CO)C(O)C(O)C7O)C(O)C6O)[C@H](O)CC5(C)[C@H]4CCC3(C)C2[C@@H]1C)COC1OC(CO)C(O)C(O)C1O (stereo partly drawn)	A549 NSCLC	TGI	11.1 µM
COc1cc(Nc2ncnc(Nc3ccc4c(n3)NC(=O)C(C)(C)O4)n2)cc(OC)c1OC	A549 NSCLC	TGI	> 100 µM
O=C([CH-]C(=O)c1ccccc1)c1ccccc1.O=C([CH-]C(=O)c1ccccc1)c1ccccc1.O=C([CH-]C(=O)c1ccccc1)c1ccccc1.[Cl-].[Zr+4]	A549 NSCLC	TGI	> 100 µM
S=C(CSc1ccccc1)Nc1cccc2ccccc12	A549 NSCLC	TGI	> 100 µM
CC[C@@H](O)C[C@H]1CCC[C@@]2(C[C@@H]3OC(=O)/C=C/[C@@](C)(O)[C@@H](O)[C@H](C)[C@@H](O)[C@H](OC4CCC(N(C)C)C(C)O4)[C@@H](O)[C@](C)(O)CCCCC/C=C/[C@@H]4CC(C)(C)O[C@@]4(O)C[C@H](O2)[C@H]3C)O1 (stereo partly drawn)	A549 NSCLC	TGI	20.5 µM
CN(C)N=Nc1ccc2[nH]c(=O)[nH]c2c1	A549 NSCLC	TGI	> 100 µM
COc1ccc(CCN2C(=O)CC34C=CC(CC3C2=O)O4)cc1OC (stereo not drawn)	A549 NSCLC	TGI	> 100 µM

# input Given the compound O=C(Nc1ccc2c(c1)OCCO2)C(=O)c1c[nH]c2ccccc12 , write its reported TGI.
# output > 100 µM

# input Item COc1ccc(-c2nsc3c2NC(=O)CC3c2cccc(Cl)c2)cc1 (stereo not drawn) : provide TGI
# output > 100 µM

# input Recall and state the measured TGI for NC(CSC(c1ccccc1)(c1ccccc1)c1ccc(F)cc1)C(=O)O (stereo not drawn) .
# output > 31.7 µM

# input Please give measured TGI of the following entry: Cc1ccc(O)c(NC2=C(Cl)C(=O)N(Cc3ccccc3)C2=O)c1
# output 91.3 µM

# input # return recorded TGI for entry COc1cc(OC)c(C2(c3c(OC(C)C)c(=O)c3=O)SCCCS2)cc1OC
# output > 100 µM

# input Determine from records and report TGI for CC(C)=C[C@@H]1O[C@H](O)[C@@H]([C@H]2CC[C@@]3(C)[C@@H]4CC[C@H]5C(C)(C)C(=O)CC[C@@]56C[C@@]46CC[C@]23C)[C@@H]1O
# output 28.7 µM

* * *

system: SF-539 CNS; test: NCI tumour cell line growth inhibition, 48 h
In this section, each of the compounds is paired with its reported TGI.
Supply the numeric figure in µM, leaving out any unit text.

Reference set, count: 5
>>> df
                      smiles_representation  units_text  readout_value
0            CCCCCCCCCCOC(=O)c1cc[n+](C)cc1          µM           29.8
1  Nc1ccccc1C(=O)NC(=O)Nc1ccc(Oc2ncc(Br)cn2)c(Cl)c1          µM         0.0204
2    CCC(=O)Nc1ccc(NCC(=O)Nc2ccc(OC)cc2)cc1          µM           38.6
3           O=C1C(Cl)=C(NCCF)C(=O)c2ncccc21          µM           3.23
4           CCOc1cc(-c2nc3cc(F)ccc3s2)ccc1O          µM           34.2

Pending compound:
# input Hello, please tell me recorded TGI for this one: COc1ccc(-c2nc(N)c(C#N)c3c2CCOc2c-3ccc3ccccc23)cc1
# output 52.6

* * *

system: SF-268 CNS; experiment: NCI tumour cell line growth inhibition, 48 h
QUANTITY_KIND: GI50

>>> df
                                   molecule  readout_value
0                    Nc1nc2c(ccc3ccccc32)s1       33200 nM
1  CCCCN1C(=O)/C(=c2\sc3n(c2=O)C2C(NN=3)N(CC)C(=O)N2CC)c2ccccc21 (stereo not drawn)         959 nM

Read the next record carefully.
# input Determine reported GI50 for COc1cc(CN(c2ccc(C)cc2)C2OC(=O)c3ccccc32)cc(OC)c1OC (stereo not drawn) ; test system: SF-268 CNS.
# output 1970 nM

* * *

Quick reference: TGI of the listed items.
tested on: MDA-MB-435; test: NCI tumour cell line growth inhibition, 48 h

// known answers, use as guide
In [3]: df
Out[3]:
                      smiles_representation  readout_value
0               Cc1cc2nnc(C(N)=O)c(N)c2cc1C       > 100 µM
1  COc1ccc2c(c1OC)C(=O)O[C@@H]2[C@H]1c2c(cc3c(c2OC)OCO3)CCN1C        32.2 µM
2  CCN(CC)c1nc(NC2CCCCC2)c2nc(N(CC)CC)nc(NC3CCCCC3)c2n1       > 100 µM
3  COc1ccc(-c2nn3ncccc3c2-c2ccnc(Nc3ccc4c(c3)OCCO4)n2)cc1        > 25 µM
4  [N-]=[N+]=Nc1ccc2c(c1)Sc1ccccc1N2CCCCN1CCN(C(=O)CCNC(=O)Cc2ccc(C(=O)c3ccccc3)cc2)CC1        6.44 µM

# input Fill in TGI for record Cc1ccc(O)c(NC2=C(Cl)C(=O)N(Cc3ccccc3)C2=O)c1
# output 76.1 µM

# input Give a short answer stating reported TGI for O=P1(Cc2ccccc2)c2ccccc2-c2ccccc21 .
# output 12.3 µM

# input Note TGI for the compound shown: Cc1cccc(Nc2cc(Cl)nc(SCC(=O)O)n2)c1C
# output > 100 µM

# input Tell me its TGI given C=CCCC(=O)C(=[N+]=[N-])C(=O)CCC(=O)c1ccccc1 as the entry.
# output > 10 µM

# input # return recorded TGI for entry COCOc1cc(OC)ccc1C/C(=N/O)C(=O)OC
# output > 100 µM

# input Supply TGI value. Item: CN(C)N=Nc1ccc2[nH]c(=O)[nH]c2c1
# output > 100 µM

# input Output TGI of CCc1nn2ncccc2c1-c1ccnc(NC2CC2)n1
# output > 25 µM
